Target: MAP kinase-activated protein kinase 5 (Homo sapiens);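 further: mean inhibition of PRAK measured in the GSK PKIS screen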
Conditions: at 1 µM
Exercise: state measured inhibition for each of the molecules provided.
Answer in %, number only, no unit symbol.

Could you tell me which inhibition is on file for c1ccc(COc2ccc(Nc3ncnc4ccc(-c5ccco5)cc34)cc2)cc1 ?
0.36

Return reported inhibition; argument: CCOc1ccc2c(-c3ccnc(Nc4cccc(C(F)(F)F)c4)n3)cnn2n1
-0.41

Query (molecule): Cc1cccc(Nc2ncc(-c3ccccc3)o2)c1 ; field requested: inhibition
0.97

Please look up its inhibition: COC(=O)Nc1nc2ccc(S(=O)(=O)c3ccc(NC(=O)Nc4cc(C(F)(F)F)ccc4F)cc3)cc2[nH]1
-0.4

Please look up its inhibition: CC(=O)NCc1cccc(C#Cc2cncnc2Nc2ccc(OCc3cccc(F)c3)c(Cl)c2)c1
0.14

* * *

Molecular target: Muscle, skeletal receptor tyrosine-protein kinase (Homo sapiens)
Conditions: at 1 µM
ENDPOINT LABEL: inhibition
A bare number is not enough; add the unit after it.

Quick check: inhibition on Muscle, skeletal receptor tyrosine-protein kinase (Homo sapiens), item N#Cc1c(NC(=O)c2ccc(F)cc2)sc2c1CCCC2 ?
2.55%

Given the entry CC(C)(CO)CNC(=O)c1ccc2c(c1)/C(=N/Nc1ccc(S(N)(=O)=O)cc1)C(=O)N2 , what inhibition was observed with Muscle, skeletal receptor tyrosine-protein kinase (Homo sapiens)?
21.6%

Under Muscle, skeletal receptor tyrosine-protein kinase (Homo sapiens): inhibition value of CC1=C(C(=O)Nc2cc(Cl)c3[nH]ncc3c2)C(c2ccc(C(F)(F)F)cc2)CC(=O)N1 (stereo not given) ?
9.6%

API: value(readout= inhibition, system= Muscle, skeletal receptor tyrosine-protein kinase (Homo sapiens), query= CC(=O)NCc1cccc(C#Cc2cncnc2Nc2ccc(OCc3cccc(F)c3)c(Cl)c2)c1 )
3.72%

Query inhibition on Muscle, skeletal receptor tyrosine-protein kinase (Homo sapiens) for COc1cc(/C=N/Nc2ncnc3[nH]ncc23)ccc1O
22.6%

Notebook: pull reported inhibition for Muscle, skeletal receptor tyrosine-protein kinase (Homo sapiens), entry Cc1ccc2c(-c3ccnc(Nc4ccccc4)n3)c(-c3ccc(F)cc3)nn2n1
4.61%

Muscle, skeletal receptor tyrosine-protein kinase (Homo sapiens) / inhibition / CCn1cc(-c2ccnc3[nH]ccc23)c(-c2cccc(NC(=O)Nc3ccc(OCc4ccccc4)cc3)c2)n1 : value?
-5.2%

Notebook: pull reported inhibition for Muscle, skeletal receptor tyrosine-protein kinase (Homo sapiens), entry COc1ccc(-c2oc3ncnc(N)c3c2-c2ccc(NC(=O)Nc3cc(C(F)(F)F)ccc3F)cc2)cc1
101%

Requested read-out inhibition, target or system Muscle, skeletal receptor tyrosine-protein kinase (Homo sapiens), entry c1cc(-c2cnn3nc(N4CCOCC4)ccc23)nc(NC2CC2)n1
9.05%

API: value(readout=inhibition, system=Muscle, skeletal receptor tyrosine-protein kinase (Homo sapiens)) for record CCOc1ccc2c(-c3ccnc(Nc4cccc(C(F)(F)F)c4)n3)cnn2n1;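 further: reported value is the mean percent inhibition of MuSK kinase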
1.27%

* * *

Biological target: ALK tyrosine kinase receptor (Homo sapiens) (UniProt Q9UM73);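 further: values are mean percent inhibition of ALK, screened as part of the GSK PKIS panel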
Sequence (Q9UM73 19-1620 limits assumed): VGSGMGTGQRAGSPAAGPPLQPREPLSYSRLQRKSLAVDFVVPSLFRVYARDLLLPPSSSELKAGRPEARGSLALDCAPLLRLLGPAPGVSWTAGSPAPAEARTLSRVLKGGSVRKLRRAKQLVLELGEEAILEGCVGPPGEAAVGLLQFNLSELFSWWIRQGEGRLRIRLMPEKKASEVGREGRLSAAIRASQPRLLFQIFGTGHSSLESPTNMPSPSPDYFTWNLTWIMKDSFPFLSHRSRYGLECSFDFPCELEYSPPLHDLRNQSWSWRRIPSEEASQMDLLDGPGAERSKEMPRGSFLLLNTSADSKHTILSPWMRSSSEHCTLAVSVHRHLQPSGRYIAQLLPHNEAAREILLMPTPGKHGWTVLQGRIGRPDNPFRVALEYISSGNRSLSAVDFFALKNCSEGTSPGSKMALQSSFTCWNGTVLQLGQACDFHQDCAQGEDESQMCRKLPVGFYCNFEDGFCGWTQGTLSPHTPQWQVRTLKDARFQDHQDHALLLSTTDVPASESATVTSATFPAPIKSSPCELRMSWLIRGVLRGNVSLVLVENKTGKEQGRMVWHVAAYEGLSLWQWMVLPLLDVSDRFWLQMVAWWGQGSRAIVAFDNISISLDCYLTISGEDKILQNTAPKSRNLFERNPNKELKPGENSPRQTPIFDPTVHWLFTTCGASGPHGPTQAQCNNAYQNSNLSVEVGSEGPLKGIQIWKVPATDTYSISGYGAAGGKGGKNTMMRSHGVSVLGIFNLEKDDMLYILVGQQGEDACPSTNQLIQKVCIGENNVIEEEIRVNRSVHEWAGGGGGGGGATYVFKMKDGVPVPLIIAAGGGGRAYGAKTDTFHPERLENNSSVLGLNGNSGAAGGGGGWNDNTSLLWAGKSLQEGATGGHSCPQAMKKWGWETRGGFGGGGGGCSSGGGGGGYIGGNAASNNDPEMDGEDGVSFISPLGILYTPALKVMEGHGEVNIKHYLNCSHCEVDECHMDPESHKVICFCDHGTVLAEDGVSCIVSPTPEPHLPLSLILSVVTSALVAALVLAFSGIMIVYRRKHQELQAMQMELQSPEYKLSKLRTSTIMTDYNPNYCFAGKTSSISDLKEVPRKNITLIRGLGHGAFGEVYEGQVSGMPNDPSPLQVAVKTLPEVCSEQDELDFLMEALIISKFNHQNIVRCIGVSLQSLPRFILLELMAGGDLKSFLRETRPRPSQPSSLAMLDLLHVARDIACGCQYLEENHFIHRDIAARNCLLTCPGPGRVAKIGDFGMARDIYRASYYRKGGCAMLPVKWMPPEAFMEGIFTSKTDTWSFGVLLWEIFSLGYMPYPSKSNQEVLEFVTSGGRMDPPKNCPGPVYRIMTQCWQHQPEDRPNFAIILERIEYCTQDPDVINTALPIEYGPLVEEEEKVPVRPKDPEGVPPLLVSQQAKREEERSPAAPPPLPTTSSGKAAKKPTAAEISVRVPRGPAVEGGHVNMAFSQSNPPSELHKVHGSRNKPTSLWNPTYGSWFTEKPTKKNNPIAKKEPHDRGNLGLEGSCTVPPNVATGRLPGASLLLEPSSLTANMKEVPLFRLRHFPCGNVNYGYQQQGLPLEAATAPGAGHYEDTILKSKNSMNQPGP
Settings: at 1 µM
What inhibition was measured for each of the following?
Express the reported value numerically, then name its unit.

Fill in the blank: the reported inhibition of Nc1ncc(-c2cccc(S(N)(=O)=O)c2)c2scc(-c3ccc(F)c(Cl)c3)c12 is ____.
13.8%

Please give the measured inhibition for this compound: COc1cc(N2CCN(C(C)C)CC2)ccc1Nc1nc(Nc2ccc(F)cc2C(N)=O)c2cc[nH]c2n1
88.8%

So what does the record say about inhibition for FC(F)(F)c1cccc(-c2nn3ncccc3c2-c2ccnc(Nc3ccc4c(c3)OCCO4)n2)c1 ?
3.89%

What value of inhibition has been reported for the following compound? CNC(=O)c1cc(-c2ccc(F)cc2)cc(-c2ccc(S(=O)(=O)N3CCCC3)cc2)c1N
2.88%

Given Fc1ccc(-c2nn3ncccc3c2-c2ccnc(Nc3ccc4c(c3)OCCO4)n2)cc1 , state its recorded inhibition.
7.86%

Given CS(=O)(=O)CCNCc1coc(-c2ccc3ncnc(Nc4ccc(OCc5ccccc5)cc4)c3c2)c1 , state its recorded inhibition.
9.68%

Which inhibition reading was recorded for the compound c1ccc(COc2ccc(Nc3ncnc4ccc(-c5ccco5)cc34)cc2)cc1 ?
2.45%

I would be grateful if you could share the reported inhibition for Cc1ccc(O)cc1Nc1ccnc2cc(-c3ccccn3)ccc12 .
34.1%

Consider the compound shown here: CCN1CCC(CC(=O)Nc2n[nH]c3nnc(-c4cccc(F)c4F)cc23)CC1 What is its recorded inhibition?
0.86%
